FYI, the data here is from the supplement of paper PMC12632987.

# tested.system: MAP1LC3A, Q9H492
# protocol.summary: median log2 fold change of GCK-ALFA target abundance (FLAG IP / Myc IP barcode read proportion) (log2 ratio); each designed protein is fused to an ALFA-tag nanobody in HEK293 cells to bring the named protein to FLAG-tagged glucokinase (GCK); Myc marks an untargeted standard; higher = target protein stabilised (more abundant)
# recorded.conditions: target protein: 3xFLAG-MCP-GCK-ALFA reporter; HEK293 landing pad (RPLP)
The full ranking holds about 2,300 sequences; the median of “median log2 fold change of GCK-ALFA target abundance (FLAG IP / Myc IP barcode read proportion)” is about 0.095, and the lowest 2% start at about -0.47. Many of the other results were omitted from the sample, so the lowest values are more common in it than they were.
endpoint: median log2 fold change
Answers are plain numbers.

- binder: "LC3A_3_1395 (protein) FEEIRKETIEYLKKAGKSEEVIKAAEEALELLEKRGYLEAAKTFLEELKKMKDVSDELLLWFLNEVINYLKTNDDDEETVIKKIKEFATIVKNESEIEEL"
  median log2 fold change: 0.436

Could you tell me median log2 fold change for each of these binders? They are listed below.
1. LC3A_28_882 (protein) SKALESAEKALEEVKKAVEAGDKEPLVLEVEAPSDEENTEKFLKLLEELAKEASKLPGVTIIVNIDSSVSQELRDKIIDKAEELEKKYPNVTIIIALPED
2. LC3A_3_1662 (protein) AEELIEETLAWLREQGRSEETLEAAREAMTALKEKGYYEALETFAELLRELADLSDELLLELAEEVLELVETSDLDEESMTEEIREIARTIRSEAEIEEL
3. LC3A_28_842 (protein) SKTEENIKKALAEAKEAAEKGESKVITLKVYKGDTEEEIDKIIETLEEIAEILKDLPNQAIIIEFEEPIDPEHQDKIIDKAEEIEKKYPNITVIIALPEE

Reply:
-0.094
-0.0559
-0.297
